biological target: T1, hTNFRSF12 amino acids a28-80-L65Q-hIgG1-Fc (human); assay: ELISA: TWEAKR-Fc construct coated at 62 ng/ml, biotinylated IgG titrated from 100 nM; token + marks IC50 of 1 to […] pM
T1 construct: TWEAKR-Fc mutein, coated on the ELISA plate

binder	binding result
P4A8(TPP-1324) (antibody, human IgG1, kappa, V domains shown, human IgG1; variable domains from WO2009/140177 with a human IgG1 constant region added; biotinylated IgG in the ELISA) VH: QVQLVQSGAEVKKPGASVKVSCKGSGYTFTDYGMHWVRQAPGQGLEWMGVISTYNGYTNYNQKFKGRVTMTVDKSTSTAYMELRSLRSDDTAVYYCARAYYGNLYYAMDYWGQGTLVTVSS VL: DIVLTQSPASLAVSLGQRATISCRASKSVSTSSYSYMHWYQQKPGQPPKLLIKYASNLESGVPARFSGSGSGTDFSLNIHPMEEDDTAMYFCQHSRELPFTFGGGTKLEIKR	binds
P3G5(TPP-2195) (antibody, mouse IgG2a, kappa, V domains shown, murine IgG2a; variable domains from WO2009/140177 with a murine IgG2 constant region added; biotinylated IgG in the ELISA) VH: QVQLQQSGPEVVRPGVSVKISCKGSGYTFTDYGIHWVKQSHAKSLEWIGVISTYNGYTNYNQKFKGKATMTVDKSSSTAYMELARLTSEDSAIYYCARAYYGNLYYAMDYWGQGTSVTVSS VL: DIVLTQSPASLAVSLGQRATISCRANKSVSTSSYSYMHWYQQKPGQPPKLLIKYASNLESGVPARFSGSGSGTDFILNIHPVEEEDAATYYCQHSRELPFTFGSGTKLEIKR	binds
18.3.3(TPP-2193) (antibody, mouse IgG2a, kappa, V domains shown, murine IgG2a; variable domains from WO2009/020933 with a murine IgG2 constant region added; biotinylated IgG in the ELISA) VH: EVKLGESGGGLVQPGGSMKLSCVASGFPFTKYWMNWVRQSPEKGLEWVAEIRLKSDNYATHYAESAKGRFTISRDDSRSSVYLQMNNLRAEDTAIYYCSPTYADTMDYWGQGTSVTVSS VL: DIVLTQSPASLAVSLGQRATISCKASQSVSTSTYSYMQWYQQRPGQSPKLLIKYASKLDSGVPARFSGSGSGTDFTLNIHPVEEEDTATYYCQHSWELPYTFGGGTRLEIKR	binds
